Reported CRF1R EC50 values for a set of binders
measured_target: CRF1R
test: cell-based or functional assay
Ends that are not written are not given here.
A number alone suffices; assume nM.

Known results for binders:
>>> print(df.to_string())
                                     binder  experimental_result
0  ZGPPISIDLPLHLLRKMIEIEKQEKEKQQATTNARILARV (C-terminal amide) [SEQ ID NO 145]                  196
1  DNPSLSIDLPFYLLRTLLELARTQSQRERAEQNAIIFASV-NH2 [SEQ ID NO 183]                  415
2  ZGPPISIDLPFYLLRKMIEIEKQEKEKQQATTNARILARV (C-terminal amide) [SEQ ID NO 147]                  102

Now look at this entry.
Query: Entry ZGPPISIDLPFQLLRKMIEIEKQEKEKQQATTNRLLLDTV (C-terminal amide) [SEQ ID NO 16] has what CRF1R EC50?
Response: 136

Just for reference, patent US20030148956A1 is where these values come from.
